This collection of values is drawn from PubChem BioAssay AID2060615.

- Test system: 496974-208-R-J2-PDC complex spheroids, growth % test/control;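 also: spheroids exposed to the drugs for 7 days before readout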
- PROTOCOL_NOTES: Anticancer human tumor 496974-208-R-J2-PDC patient-derived pancreatic carcinoma cell line growth inhibition [CLK]; active = viability on the fitted dose curve at most 10% of control; inactive = the rest
- APPLIED_CONDITIONS: second compound 1 µM; first compound 0.316 µM
Classes used: active, inactive

[[record]]
compound = "O=C(c1cc(Cc2n[nH]c(=O)c3ccccc23)ccc1F)N1CCN(C(=O)C2CC2)CC1 + CN1CCN(c2cc(C(=O)Nc3cc4cc(-c5cnn(C)c5)ccc4cn3)ccn2)CC1"
qualitative_label = "active"

[[record]]
compound = "CC1(C)CCC(CN2CCN(c3ccc(C(=O)NS(=O)(=O)c4ccc(NCC5CCOCC5)c([N+](=O)[O-])c4)c(Oc4cnc5[nH]ccc5c4)c3)CC2)=C(c2ccc(Cl)cc2)C1 + CNC(=O)c1ccc(Nc2nc(OC3CCCC3)c3c(-c4ccc5nc(C)oc5c4)c[nH]c3n2)c(OC)c1"
qualitative_label = "inactive"

[[record]]
compound = "COc1cccc2c1C(=O)c1c(O)c3c(c(O)c1C2=O)CC(O)(C(=O)CO)CC3OC1CC(N)C(O)C(C)O1 (stereo unspecified) + CNC(=O)c1ccc(Nc2nc(OC3CCCC3)c3c(-c4ccc5nc(C)oc5c4)c[nH]c3n2)c(OC)c1"
qualitative_label = "inactive"

[[record]]
compound = "CCN1CCN(Cc2ccc(Nc3ncc(F)c(-c4cc(F)c5nc(C)n(C(C)C)c5c4)n3)nc2)CC1 + CNC(=O)c1ccc(Nc2nc(OC3CCCC3)c3c(-c4ccc5nc(C)oc5c4)c[nH]c3n2)c(OC)c1"
qualitative_label = "inactive"

[[record]]
compound = "CC(Nc1ccc2c(c1)OCCn1cc(N3C(=O)OCC3C(F)F)nc1-2)C(N)=O (stereo unspecified) + CNC(=O)c1ccc(Nc2nc(OC3CCCC3)c3c(-c4ccc5nc(C)oc5c4)c[nH]c3n2)c(OC)c1"
qualitative_label = "inactive"

[[record]]
compound = "COc1c(OCCCN2CCOCC2)ccc2c3n(c(=NC(=O)c4cnc(N)nc4)nc12)CCN3 + CN1CCN(c2cc(C(=O)Nc3cc4cc(-c5cnn(C)c5)ccc4cn3)ccn2)CC1"
qualitative_label = "active"

[[record]]
compound = "CC(Nc1ccc2c(c1)OCCn1cc(N3C(=O)OCC3C(F)F)nc1-2)C(N)=O (stereo unspecified) + CN1CCN(c2cc(C(=O)Nc3cc4cc(-c5cnn(C)c5)ccc4cn3)ccn2)CC1"
qualitative_label = "active"

[[record]]
compound = "C=CC(=O)N1CCN(c2nc(=O)n(-c3c(C)ccnc3C(C)C)c3nc(-c4c(O)cccc4F)c(F)cc23)C(C)C1 (stereo unspecified) + CNC(=O)c1ccc(Nc2nc(OC3CCCC3)c3c(-c4ccc5nc(C)oc5c4)c[nH]c3n2)c(OC)c1"
qualitative_label = "inactive"

[[record]]
compound = "CC(=O)O[C@H]1C(=O)[C@@]2(C)[C@H]([C@H](OC(=O)c3ccccc3)[C@]3(O)C[C@H](OC(=O)[C@H](O)[C@@H](NC(=O)c4ccccc4)c4ccccc4)C(C)=C1C3(C)C)[C@]1(OC(C)=O)CO[C@@H]1C[C@@H]2O + CN1CCN(c2cc(C(=O)Nc3cc4cc(-c5cnn(C)c5)ccc4cn3)ccn2)CC1"
qualitative_label = "active"

[[record]]
compound = "Nc1ccccc1NC(=O)c1ccc(CNC(=O)OCc2cccnc2)cc1 + CN1CCN(c2cc(C(=O)Nc3cc4cc(-c5cnn(C)c5)ccc4cn3)ccn2)CC1"
qualitative_label = "active"

[[record]]
compound = "COc1ccc([C@@H](O)c2cc(-c3ncnc4cc(N5CCOCC5)ccc34)c(F)cc2Cl)nn1 + CNC(=O)c1ccc(Nc2nc(OC3CCCC3)c3c(-c4ccc5nc(C)oc5c4)c[nH]c3n2)c(OC)c1"
qualitative_label = "inactive"

